# Test system: 695427-040-R-J1-PDC complex spheroid viability
# assay_comment: Anticancer human tumor 695427-040-R-J1-PDC patient-derived colon adenocarcinoma cell line growth inhibition [POLQ]
# assay_context: second compound 0.316 µM; first compound 1 µM; active compounds read low
endpoint: viability, T/C

| molecule | endpoint | value_reported |
| --- | --- | --- |
| CC(C)n1c(=O)n(C)c2cnc3cc(F)c(-c4ccc(OCCCN5CCCCC5)nc4)cc3c21 + Cc1cccc(N(C)C(=O)C2C(O)CCN2c2nc(C)cc(C(F)(F)F)c2C#N)c1 | viability, T/C | 113% |
| O=C(Nc1ccc(O)c(NS(=O)(=O)c2ccc(F)cc2)c1)c1ccc(-c2ccccc2)cc1 + Cc1cccc(N(C)C(=O)C2C(O)CCN2c2nc(C)cc(C(F)(F)F)c2C#N)c1 | viability, T/C | 101% |
| CCc1cc2c(N3CCc4c(cc(Cn5ccnc5)cc4-c4cn(C)nc4C(F)(F)F)C3=O)cc(C)nc2c(OC)n1 + Nc1ccc(C#CCN(C(=O)Cc2ncc(C(F)(F)F)cc2C(F)(F)F)c2ccc(F)cc2)nn1 | viability, T/C | 101% |
| CCc1c2c(nc3ccc(O)cc13)-c1cc3c(c(=O)n1C2)COC(=O)[C@]3(O)CC + Cc1cccc(N(C)C(=O)C2C(O)CCN2c2nc(C)cc(C(F)(F)F)c2C#N)c1 | viability, T/C | 49.7% |
| COc1ccc([C@@H](O)c2cc(-c3ncnc4cc(N5CCOCC5)ccc34)c(F)cc2Cl)nn1 + Nc1ccc(C#CCN(C(=O)Cc2ncc(C(F)(F)F)cc2C(F)(F)F)c2ccc(F)cc2)nn1 | viability, T/C | 89.6% |

We next turn to a different molecule, shown below.
Problem: Fill blank: measured viability, T/C of the molecule COc1cccc2c1C(=O)c1c(O)c3c(c(O)c1C2=O)CC(O)(C(=O)CO)CC3OC1CC(N)C(O)C(C)O1 (stereo not given) + Nc1ccc(C#CCN(C(=O)Cc2ncc(C(F)(F)F)cc2C(F)(F)F)c2ccc(F)cc2)nn1 is ____.
Result: 83.7%

###

Measured viability, T/C, listed per entry for reference.
# Test system: 695427-040-R-J1-PDC complex spheroid viability
# assay_comment: Anticancer human tumor 695427-040-R-J1-PDC cell line growth inhibition [POLQ];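 note: spheroids exposed to compounds for seven days; 100% = DMSO vehicle control viability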
# assay_context: second compound 0.316 µM; first compound 0.316 µM; active compounds read low
The reply should contain only the number, in %.

| compound | target_system | endpoint | value_reported |
| --- | --- | --- | --- |
| O=c1[nH]cc(F)c(=O)[nH]1 + Nc1ccc(C#CCN(C(=O)Cc2ncc(C(F)(F)F)cc2C(F)(F)F)c2ccc(F)cc2)nn1 | 695427-040-R-J1-PDC complex spheroid viability | viability, T/C | 99.5 |
| O=c1[nH]cc(F)c(=O)[nH]1 + COC1C(OC(N)=O)C(O)C(Oc2ccc3c(O)c(NC(=O)c4ccc(O)c(CC=C(C)C)c4)c(=O)oc3c2C)OC1(C)C | 695427-040-R-J1-PDC complex spheroid viability | viability, T/C | 112 |

We now examine a further compound.
Problem: Recorded viability, T/C for COc1cc(C2c3cc4c(cc3C(OC3OC5COC(C)OC5C(O)C3O)C3COC(=O)C23)OCO4)cc(OC)c1O (stereo not drawn) + COC1C(OC(N)=O)C(O)C(Oc2ccc3c(O)c(NC(=O)c4ccc(O)c(CC=C(C)C)c4)c(=O)oc3c2C)OC1(C)C , please?
Result: 94.7

###

# Tested on: 695427-040-R-J1-PDC complex spheroid viability
# assay_comment: Anticancer human tumor 695427-040-R-J1-PDC cell line growth inhibition [POLQ];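 note: spheroids exposed to compounds for seven days; 100% = DMSO vehicle control viability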
# assay_context: second compound 0.316 µM; first compound 0.1 µM; active compounds read low
# Procedure: Multicellular complex tumor spheroid response to Polymerase (POL) inhibitors (novobiocin, ART-558, RP6685) in combination with a variety of drugs and investigational agents in selected tumor cell lines The POL inhibitors (novobiocin, ART-558, and RP6685) were evaluated both individually and in combination with standard of care and investigational anticancer small molecules within a complex spheroid model of solid tumors. . […]
# viability, T/C per record follows
Write the answer as a number in %, unit excluded.

| compound | value_reported |
| --- | --- |
| CC(C)n1c(=O)n(C)c2cnc3cc(F)c(-c4ccc(OCCCN5CCCCC5)nc4)cc3c21 + Cc1cccc(N(C)C(=O)C2C(O)CCN2c2nc(C)cc(C(F)(F)F)c2C#N)c1 | 101 |
| COc1cccc(OCCCN)c1-c1cc(Nc2cnc(C#N)cn2)n[nH]1 + Nc1ccc(C#CCN(C(=O)Cc2ncc(C(F)(F)F)cc2C(F)(F)F)c2ccc(F)cc2)nn1 | 82.1 |
| CNCc1ccc(-c2[nH]c3cc(F)cc4c3c2CCNC4=O)cc1 + Cc1cccc(N(C)C(=O)C2C(O)CCN2c2nc(C)cc(C(F)(F)F)c2C#N)c1 | 99.3 |
| O=C(Nc1ccc(O)c(NS(=O)(=O)c2ccc(F)cc2)c1)c1ccc(-c2ccccc2)cc1 + Nc1ccc(C#CCN(C(=O)Cc2ncc(C(F)(F)F)cc2C(F)(F)F)c2ccc(F)cc2)nn1 | 106 |
| C=CCn1c(=O)c2cnc(Nc3ccc(N4CCN(C)CC4)cc3)nc2n1-c1cccc(C(C)(C)O)n1 + Nc1ccc(C#CCN(C(=O)Cc2ncc(C(F)(F)F)cc2C(F)(F)F)c2ccc(F)cc2)nn1 | 97.7 |
| COc1cc2cc(C(=O)CCC(=O)O)sc2cc1OC + Cc1cccc(N(C)C(=O)C2C(O)CCN2c2nc(C)cc(C(F)(F)F)c2C#N)c1 | 106 |
| C=CC(=O)N1CCN(c2nc(=O)n(-c3c(C)ccnc3C(C)C)c3nc(-c4c(O)cccc4F)c(F)cc23)C(C)C1 (configuration not stated) + Nc1ccc(C#CCN(C(=O)Cc2ncc(C(F)(F)F)cc2C(F)(F)F)c2ccc(F)cc2)nn1 | 107 |
| Nc1ccn(C2OC(CO)C(O)C2(F)F)c(=O)n1 (configuration not stated) + Nc1ccc(C#CCN(C(=O)Cc2ncc(C(F)(F)F)cc2C(F)(F)F)c2ccc(F)cc2)nn1 | 102 |

Problem: Query (compound): Cn1ncnc1[C@H]1c2n[nH]c(=O)c3cc(F)cc(c23)N[C@@H]1c1ccc(F)cc1 + COC1C(OC(N)=O)C(O)C(Oc2ccc3c(O)c(NC(=O)c4ccc(O)c(CC=C(C)C)c4)c(=O)oc3c2C)OC1(C)C ; field requested: viability, T/C
Result: 92.1

Problem: CCc1cc2c(N3CCc4c(cc(Cn5ccnc5)cc4-c4cn(C)nc4C(F)(F)F)C3=O)cc(C)nc2c(OC)n1 + Cc1cccc(N(C)C(=O)C2C(O)CCN2c2nc(C)cc(C(F)(F)F)c2C#N)c1 , same question.
Result: 105

Problem: Follow-up entry: COc1cc(C2c3cc4c(cc3C(OC3OC5COC(C)OC5C(O)C3O)C3COC(=O)C23)OCO4)cc(OC)c1O (configuration not stated) + Cc1cccc(N(C)C(=O)C2C(O)CCN2c2nc(C)cc(C(F)(F)F)c2C#N)c1
Result: 89.8

Problem: Proceed to C=CCn1c(=O)c2cnc(Nc3ccc(N4CCN(C)CC4)cc3)nc2n1-c1cccc(C(C)(C)O)n1 + COC1C(OC(N)=O)C(O)C(Oc2ccc3c(O)c(NC(=O)c4ccc(O)c(CC=C(C)C)c4)c(=O)oc3c2C)OC1(C)C
Result: 105

###

# Test system: 695427-040-R-J1-PDC complex spheroid viability
# assay_comment: Anticancer human tumor 695427-040-R-J1-PDC cell line growth inhibition [POLQ];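 note: spheroids exposed to compounds for seven days; 100% = DMSO vehicle control viability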
# assay_context: second compound 0.1 µM; first compound 1 µM; active compounds read low
Listed below: viability, T/C values for each entry.
Kindly answer with a numeric value in %, unit omitted.

Consider the reported viability, T/C for these molecules:
| molecule | target_system | viability, T/C, % |
| --- | --- | --- |
| COc1cc2cc(C(=O)CCC(=O)O)sc2cc1OC + Nc1ccc(C#CCN(C(=O)Cc2ncc(C(F)(F)F)cc2C(F)(F)F)c2ccc(F)cc2)nn1 | 695427-040-R-J1-PDC complex spheroid viability | 102 |
| CC1COCCN1c1cc(C2(O)CC3CCC(C2)O3)c2cnn(-c3ccn[nH]3)c2n1 (stereo not drawn) + Nc1ccc(C#CCN(C(=O)Cc2ncc(C(F)(F)F)cc2C(F)(F)F)c2ccc(F)cc2)nn1 | 695427-040-R-J1-PDC complex spheroid viability | 76.3 |

Problem: Reported viability, T/C, molecule CC1COCCN1c1cc(C2(S(C)(=N)=O)CC2)nc(-c2ccnc3[nH]ccc23)n1 (stereo not drawn) + Cc1cccc(N(C)C(=O)C2C(O)CCN2c2nc(C)cc(C(F)(F)F)c2C#N)c1 : ____
Result: 93.8

###

# Test system: 695427-040-R-J1-PDC complex spheroid viability
# assay_comment: Anticancer human tumor 695427-040-R-J1-PDC cell line growth inhibition [POLQ];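 note: spheroids exposed to compounds for seven days; 100% = DMSO vehicle control viability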
# assay_context: second compound 10 µM; first compound 0.0316 µM; active compounds read low
Measured viability, T/C accompanies every entry in the list below.
Reply with just the number (in %).

Below, 5 compounds whose answers are already recorded.
| compound | viability, T/C (%) |
| --- | --- |
| COc1cc2cc(C(=O)CCC(=O)O)sc2cc1OC + Cc1cccc(N(C)C(=O)C2C(O)CCN2c2nc(C)cc(C(F)(F)F)c2C#N)c1 | 94.3 |
| CC1COCCN1c1cc(C2(S(C)(=N)=O)CC2)nc(-c2ccnc3[nH]ccc23)n1 (stereo unspecified) + Nc1ccc(C#CCN(C(=O)Cc2ncc(C(F)(F)F)cc2C(F)(F)F)c2ccc(F)cc2)nn1 | 104 |
| C=CCn1c(=O)c2cnc(Nc3ccc(N4CCN(C)CC4)cc3)nc2n1-c1cccc(C(C)(C)O)n1 + COC1C(OC(N)=O)C(O)C(Oc2ccc3c(O)c(NC(=O)c4ccc(O)c(CC=C(C)C)c4)c(=O)oc3c2C)OC1(C)C | 106 |
| CCCS(=O)(=O)Nc1ccc(F)c(C(=O)c2c[nH]c3ncc(-c4ccc(Cl)cc4)cc23)c1F + Cc1cccc(N(C)C(=O)C2C(O)CCN2c2nc(C)cc(C(F)(F)F)c2C#N)c1 | 101 |
| CC(C)n1c(=O)n(C)c2cnc3cc(F)c(-c4ccc(OCCCN5CCCCC5)nc4)cc3c21 + COC1C(OC(N)=O)C(O)C(Oc2ccc3c(O)c(NC(=O)c4ccc(O)c(CC=C(C)C)c4)c(=O)oc3c2C)OC1(C)C | 106 |

Problem: What measured viability, T/C goes with Nc1ccn(C2OC(CO)C(O)C2(F)F)c(=O)n1 (stereo unspecified) + Cc1cccc(N(C)C(=O)C2C(O)CCN2c2nc(C)cc(C(F)(F)F)c2C#N)c1 ?
Result: 84.9

Problem: Also Cn1ncnc1[C@H]1c2n[nH]c(=O)c3cc(F)cc(c23)N[C@@H]1c1ccc(F)cc1 + Nc1ccc(C#CCN(C(=O)Cc2ncc(C(F)(F)F)cc2C(F)(F)F)c2ccc(F)cc2)nn1 ?
Result: 102

Problem: Please give the result for C=CC(=O)N1CCN(c2nc(=O)n(-c3c(C)ccnc3C(C)C)c3nc(-c4c(O)cccc4F)c(F)cc23)C(C)C1 (stereo unspecified) + Nc1ccc(C#CCN(C(=O)Cc2ncc(C(F)(F)F)cc2C(F)(F)F)c2ccc(F)cc2)nn1 too.
Result: 97.2

Problem: Also check CCc1c2c(nc3ccc(O)cc13)-c1cc3c(c(=O)n1C2)COC(=O)[C@]3(O)CC + Cc1cccc(N(C)C(=O)C2C(O)CCN2c2nc(C)cc(C(F)(F)F)c2C#N)c1
Result: 78.9

Problem: Proceed to O=C(Nc1ccc(O)c(NS(=O)(=O)c2ccc(F)cc2)c1)c1ccc(-c2ccccc2)cc1 + Cc1cccc(N(C)C(=O)C2C(O)CCN2c2nc(C)cc(C(F)(F)F)c2C#N)c1
Result: 103

Problem: Also CC(C)n1c(=O)n(C)c2cnc3cc(F)c(-c4ccc(OCCCN5CCCCC5)nc4)cc3c21 + Cc1cccc(N(C)C(=O)C2C(O)CCN2c2nc(C)cc(C(F)(F)F)c2C#N)c1 ?
Result: 93.5

Problem: Ok, now Cn1ncnc1[C@H]1c2n[nH]c(=O)c3cc(F)cc(c23)N[C@@H]1c1ccc(F)cc1 + Cc1cccc(N(C)C(=O)C2C(O)CCN2c2nc(C)cc(C(F)(F)F)c2C#N)c1
Result: 93.3

Problem: // same read-out, input: C=CCn1c(=O)c2cnc(Nc3ccc(N4CCN(C)CC4)cc3)nc2n1-c1cccc(C(C)(C)O)n1 + Nc1ccc(C#CCN(C(=O)Cc2ncc(C(F)(F)F)cc2C(F)(F)F)c2ccc(F)cc2)nn1
Result: 85.8

Problem: Same thing, different compound: COc1cccc(OCCCN)c1-c1cc(Nc2cnc(C#N)cn2)n[nH]1 + Cc1cccc(N(C)C(=O)C2C(O)CCN2c2nc(C)cc(C(F)(F)F)c2C#N)c1
Result: 75.8

Problem: Can you check CC1COCCN1c1cc(-c2ccnn2C)c2ccnc(-c3ccn[nH]3)c2n1 (stereo unspecified) + Nc1ccc(C#CCN(C(=O)Cc2ncc(C(F)(F)F)cc2C(F)(F)F)c2ccc(F)cc2)nn1 next?
Result: 92

Problem: Would you kindly repeat that for COc1cc(C2c3cc4c(cc3C(OC3OC5COC(C)OC5C(O)C3O)C3COC(=O)C23)OCO4)cc(OC)c1O (stereo unspecified) + COC1C(OC(N)=O)C(O)C(Oc2ccc3c(O)c(NC(=O)c4ccc(O)c(CC=C(C)C)c4)c(=O)oc3c2C)OC1(C)C ?
Result: 94.5

Problem: CCc1cc2c(N3CCc4c(cc(Cn5ccnc5)cc4-c4cn(C)nc4C(F)(F)F)C3=O)cc(C)nc2c(OC)n1 + Nc1ccc(C#CCN(C(=O)Cc2ncc(C(F)(F)F)cc2C(F)(F)F)c2ccc(F)cc2)nn1 ?
Result: 107

Problem: Now the compound COc1cccc(OCCCN)c1-c1cc(Nc2cnc(C#N)cn2)n[nH]1 + COC1C(OC(N)=O)C(O)C(Oc2ccc3c(O)c(NC(=O)c4ccc(O)c(CC=C(C)C)c4)c(=O)oc3c2C)OC1(C)C
Result: 81.1

Problem: Okay, and CCc1cc2c(N3CCc4c(cc(Cn5ccnc5)cc4-c4cn(C)nc4C(F)(F)F)C3=O)ccnc2c(OC)n1 + Cc1cccc(N(C)C(=O)C2C(O)CCN2c2nc(C)cc(C(F)(F)F)c2C#N)c1 ?
Result: 98

Problem: Now consider CC1COCCN1c1cc(C2(O)CC3CCC(C2)O3)c2cnn(-c3ccn[nH]3)c2n1 (stereo unspecified) + COC1C(OC(N)=O)C(O)C(Oc2ccc3c(O)c(NC(=O)c4ccc(O)c(CC=C(C)C)c4)c(=O)oc3c2C)OC1(C)C and answer again.
Result: 129

Problem: Would you mind doing O=c1[nH]cc(F)c(=O)[nH]1 + COC1C(OC(N)=O)C(O)C(Oc2ccc3c(O)c(NC(=O)c4ccc(O)c(CC=C(C)C)c4)c(=O)oc3c2C)OC1(C)C as well?
Result: 99.6
